This collection of values is drawn from patent US9394289B2.

The following molecules have recorded pIC50 on c-fms (Homo sapiens (Human)).
Structures can show the parent of a compound that is named as a salt.
Just so you know, pIC50 here is -log10 of the concentration in molar units; reply with that number alone.

Below, 2 molecules whose answers are already recorded.
INSERT INTO measurements (molecule, recorded_value) VALUES
  ('CC1(C)CC=C(c2cc(C3(N4CCN(CC(=O)O)CC4)CCOCC3)ccc2NC(=O)c2ncc(C#N)[nH]2)CC1 [Example 10, trifluoroacetic acid salt]', 8.10),
  ('CC1(C)CC=C(c2cc(C3(N4CCNCC4)CCOCC3)ccc2NC(=O)c2ncc(C#N)[nH]2)CC1', 8.72);

Consider now this further molecule.
The reported pIC50 value, c-fms (Homo sapiens (Human)), for CC1(C)CC=C(c2cc(C3(C#N)CC(C)(C)OC(C)(C)C3)ccc2NC(=O)c2nc(C#N)c[nH]2)CC1 reads 7.59

* * *

IC50 tested on c-fms (Homo sapiens (Human), UniProt P07333): recorded values
Sequence (P07333 20-972): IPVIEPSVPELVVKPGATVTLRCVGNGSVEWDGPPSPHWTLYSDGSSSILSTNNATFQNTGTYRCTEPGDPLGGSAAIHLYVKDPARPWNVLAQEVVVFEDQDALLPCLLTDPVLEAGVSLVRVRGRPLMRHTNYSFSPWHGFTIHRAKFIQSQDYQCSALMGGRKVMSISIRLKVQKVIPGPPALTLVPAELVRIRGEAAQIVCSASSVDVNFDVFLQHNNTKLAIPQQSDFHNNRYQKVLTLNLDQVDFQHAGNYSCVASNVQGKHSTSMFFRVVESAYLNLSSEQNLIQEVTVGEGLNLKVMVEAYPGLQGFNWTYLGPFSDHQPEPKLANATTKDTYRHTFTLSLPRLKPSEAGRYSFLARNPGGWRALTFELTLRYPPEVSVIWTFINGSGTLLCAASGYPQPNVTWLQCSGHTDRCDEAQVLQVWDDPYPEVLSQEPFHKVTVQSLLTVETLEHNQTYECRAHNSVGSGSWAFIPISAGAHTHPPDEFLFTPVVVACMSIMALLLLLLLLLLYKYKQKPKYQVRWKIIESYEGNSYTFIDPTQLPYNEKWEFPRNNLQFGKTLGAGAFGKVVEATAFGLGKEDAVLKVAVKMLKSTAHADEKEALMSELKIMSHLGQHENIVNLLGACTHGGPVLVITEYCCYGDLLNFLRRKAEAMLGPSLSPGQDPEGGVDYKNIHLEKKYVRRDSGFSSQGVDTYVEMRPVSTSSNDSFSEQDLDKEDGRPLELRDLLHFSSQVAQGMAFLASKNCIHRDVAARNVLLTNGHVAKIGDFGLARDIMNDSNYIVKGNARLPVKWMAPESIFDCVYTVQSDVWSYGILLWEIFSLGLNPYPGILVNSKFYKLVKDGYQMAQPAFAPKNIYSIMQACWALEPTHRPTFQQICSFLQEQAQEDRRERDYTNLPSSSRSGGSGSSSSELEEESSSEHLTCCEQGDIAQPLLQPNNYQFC
Structures can show the parent of a compound that is named as a salt.
Report as a plain number; the unit nM is understood.

INSERT INTO assay_data (compound, measurement_target, measurement_type, recorded_value) VALUES
  ('COC(=O)C1(c2ccc(NC(=O)c3nc(C#N)c[nH]3)c(C3=CCC(C)(C)CC3)c2)CCOCC1', 'c-fms (Homo sapiens (Human), UniProt P07333)', 'IC50', 0.67),
  ('CC1(C)CC=C(c2cc(C3(CN4CCOCC4)CCOCC3)ccc2NC(=O)c2nc(C#N)c[nH]2)CC1', 'c-fms (Homo sapiens (Human), UniProt P07333)', 'IC50', 3),
  ('CC(=O)N1CCC(N)(c2ccc(NC(=O)c3nc(C#N)c[nH]3)c(C3=CCC(C)(C)CC3)c2)CC1 [Example 13, acetic acid salt]', 'c-fms (Homo sapiens (Human), UniProt P07333)', 'IC50', 0.8);

The measured IC50 that N#Cc1c[nH]c(C(=O)Nc2ccc(C3(O)CCSCC3)cc2C2=CCCCC2)n1 showed for c-fms (Homo sapiens (Human), UniProt P07333) is 3.9

Lab entry: c-fms (Homo sapiens (Human), UniProt P07333) assay, compound CS(=O)(=O)C1(c2ccc(NC(=O)c3ncc(C#N)[nH]3)c(C3=CCCCC3)c2)CCOCC1 , IC50 = 1.5

* * *

Hi! I'm sharing some IC50 results obtained with c-fms (Homo sapiens (Human)).
Structures can show the parent of a compound that is named as a salt.
Give the quantity in nM, number only.

Previously resolved entries follow.
INSERT INTO assay_data (molecule, measurement_target, recorded_value) VALUES
  ('CC1(C)CC=C(c2cc(C3(O)CCN(CC(F)(F)F)CC3)ccc2NC(=O)c2nc(C#N)c[nH]2)CC1 [Example 90]', 'c-fms (Homo sapiens (Human))', 6.5),
  ('C[C@@H]1CC(O)(c2ccc(NC(=O)c3nc(C#N)c[nH]3)c(C3=CCC(C)(C)CC3)c2)C[C@H](C)O1 (stereo partly drawn) [Example 30]', 'c-fms (Homo sapiens (Human))', 3.2);

Form: molecule = CC1(C)CC=C(c2cc(C3(c4nn[nH]n4)CCOCC3)ccc2NC(=O)c2nc(C#N)c[nH]2)CC1 [Example 22] ; IC50 = 0.8

Given item CC1(C)CC=C(c2cc(C3(N4CCOCC4)CCOCC3)ccc2NC(=O)c2ncc(C#N)[nH]2)CC1 [Example 6] , the value recorded as its IC50 is 1.6

Documented IC50 of CN(C)CCOC1(c2ccc(NC(=O)c3ncc(C#N)[nH]3)c(C3=CCC(C)(C)CC3)c2)CCOCC1 [Example 2, trifluoroacetic acid salt] : 0.42

Just so you know, measured IC50 for CC1(C)CC=C(c2cc(C3(O)CC4(C)CCC(C)(C3)O4)ccc2NC(=O)c2nc(C#N)c[nH]2)CC1 (stereo not drawn) [Example 93] came out at 2.9

Record summary for CC1(C)CC=C(c2cc(C3(O)CCOCC3)ccc2NC(=O)c2ncc(C#N)[nH]2)CC1 [Example 1] : reported IC50 = 0.7

CC1(C)CC=C(c2cc(C3(O)CCSCC3)ccc2NC(=O)c2nc(C#N)c[nH]2)CC1 [Example 11] has a reported IC50 of 2.9

IC50 reported for this molecule CN(C)C(=O)C1(c2ccc(NC(=O)c3nc(C#N)c[nH]3)c(C3=CCC(C)(C)CC3)c2)CCOCC1 [Example 29] : 1.6

Lookup result for N#Cc1c[nH]c(C(=O)Nc2ccc(C3(C(N)=O)CCOCC3)cc2C2=CCCCC2)n1 [Example 19] ; measured IC50: 1.8

GET /value?item= CC1(C)CC=C(c2cc(C3(CO)CCOCC3)ccc2NC(=O)c2nc(C#N)c[nH]2)CC1 [Example 25] &field=IC50 returns 0.49

IC50 for CN1CCN(C2(c3ccc(NC(=O)c4ncc(C#N)[nH]4)c(C4=CCC(C)(C)CC4)c3)CCOCC2)CC1 [Example 8] is 4

Entry CN(C)C(=O)C1(c2ccc(NC(=O)c3nc(C#N)c[nH]3)c(C3=CCCCC3)c2)CCOCC1 [Example 28] — recorded IC50 = 8.4

What the record says about CC1(C)CC=C(c2cc(C3(O)CCS(=O)(=O)CC3)ccc2NC(=O)c2nc(C#N)c[nH]2)CC1 [Example 12] : IC50 is 1.1

Summary for this molecule, CC1(C)CC=C(c2cc(C3(C(N)=O)CCOCC3)ccc2NC(=O)c2nc(C#N)c[nH]2)CC1 [Example 24] : IC50 is 0.8
